Taken from the Immune Epitope Database (IEDB).

# maps each entry to its Kd
target: HLA-B*40:01; experiment: IEDB peptide-MHC binding, purified MHC/direct/fluorescence; filed as Kd, often an IC50 or EC50 that approximates it; bounds were set here for any values at or beyond the usual limits of such assays; settings: source organism: Escherichia coli O157:H7

- MACROMOLECULE SEQUENCE: "EQRLIDICV"
  ASSAY SYSTEM: "HLA-B*40:01"
  EXPERIMENTAL RESULT: "≥ 20 µM"
- MACROMOLECULE SEQUENCE: "YLFQWNDNV"
  ASSAY SYSTEM: "HLA-B*40:01"
  EXPERIMENTAL RESULT: "≥ 20 µM"

Now take the following sequence into account.
Please fill in: Kd reported for `GITGGHIPK` = ≥ 20 µM

---

target: HLA-A*02:06; assay: IEDB peptide-MHC binding, purified MHC/competitive/radioactivity; filed as Kd, often an IC50 or EC50 that approximates it; bounds were set here for any values at or beyond the usual limits of such assays; conditions: source organism: Dengue virus 2 Jamaica/1409/1983
# maps each entry to its pKd
Just the number, please; pKd means minus log10 of the concentration in mol/L.

These recorded examples may help you get a feel for the data.
- MACROMOLECULE SEQUENCE: "ILLVAVSFV"
  ASSAY SYSTEM: "HLA-A*02:06"
  pKd: 7.86
- MACROMOLECULE SEQUENCE: "KVLNPYMPSV"
  ASSAY SYSTEM: "HLA-A*02:06"
  pKd: 8.25
- MACROMOLECULE SEQUENCE: "AILLVAVSFV"
  ASSAY SYSTEM: "HLA-A*02:06"
  pKd: 7.22

Now take the following sequence into account.
Please fill in: pKd reported for `ITLTAALLLL` = 7.56

---

biological target: HLA-A*01:01; assay: IEDB peptide-MHC binding, purified MHC/direct/fluorescence; filed as Kd, often an IC50 or EC50 that approximates it; bounds were set here for any values at or beyond the usual limits of such assays; conditions: source organism: Influenza A virus (A/Duck/Shantou/2134/00(H9N2))
pKd: −log10 of the molar value.
MEASUREMENT TYPE: pKd

Please fill in: pKd reported for `ASRGLWDSF` = ≤ 4.70

---

target: HLA-A*11:01; experiment: IEDB peptide-MHC binding, purified MHC/competitive/radioactivity; filed as Kd, often an IC50 or EC50 that approximates it; bounds were set here for any values at or beyond the usual limits of such assays; settings: source organism: Vaccinia virus WR
MEASUREMENT TYPE: pKd
Just the number, please; pKd means minus log10 of the concentration in mol/L.

These recorded examples may help you get a feel for the data.
- MACROMOLECULE SEQUENCE: "VIPFDDIVR"
  ASSAY SYSTEM: "HLA-A*11:01"
  pKd: 5.02
- MACROMOLECULE SEQUENCE: "DSPLTLLIK"
  ASSAY SYSTEM: "HLA-A*11:01"
  pKd: 5.20
- MACROMOLECULE SEQUENCE: "VVKLTAVCMK"
  ASSAY SYSTEM: "HLA-A*11:01"
  pKd: 6.92
- MACROMOLECULE SEQUENCE: "AAVTLNRIK"
  ASSAY SYSTEM: "HLA-A*11:01"
  pKd: 5.32
- MACROMOLECULE SEQUENCE: "EISSNDNAK"
  ASSAY SYSTEM: "HLA-A*11:01"
  pKd: 6.35
- MACROMOLECULE SEQUENCE: "CFKEASFSK"
  ASSAY SYSTEM: "HLA-A*11:01"
  pKd: 5.86
- MACROMOLECULE SEQUENCE: "IFPGDKTSY"
  ASSAY SYSTEM: "HLA-A*11:01"
  pKd: 4.93
- MACROMOLECULE SEQUENCE: "NFGTIILNK"
  ASSAY SYSTEM: "HLA-A*11:01"
  pKd: 5.96
- MACROMOLECULE SEQUENCE: "DVKVLAARLK"
  ASSAY SYSTEM: "HLA-A*11:01"
  pKd: 5.63

Please fill in: pKd reported for `ELNIVDEIIK` = 4.72
